Molecular target: Tau40 P301L protein (human)
Test: cell-based or functional assay
Square brackets hold non-standard residues; d marks the D form. Ends that are not written are not given here.
Quick reference for IC50, Tau40 assay (ThT) among some binders

binder	IC50, Tau40 assay (ThT)
[dW][dW][dR][dF][dH][dW][dR] [wwrfhwr (PEPTIDE ID NO: 43)]	1130 nM
[dR][dL][dR][dI][dR][dW] [rlrirw (PEPTIDE ID NO: 27)]	1610 nM
[dW][dR][dL][dK][dV][dR][dW][dE] [wrlkvrwe (PEPTIDE ID NO: 275)]	1520 nM
[dW][dR][dL][dR][dI][dT][dW] [wrlritw (PEPTIDE ID NO: 314)]	2360 nM
[dL][dK][dL][dK][dI][dK][dH][dF] [lklkikhf (PEPTIDE ID NO: 154)]	2210 nM
[dF][dK][dI][dH][dL][dR][dH][dW] [fkihlrhw (PEPTIDE ID NO: 124)]	1340 nM
[dW][dT][dL][dR][dI][dH][dW] [wtlrihw (PEPTIDE ID NO: 305)]	2070 nM
[dW][dK][dL][dK][dL][dR][dW][dW] [wklklrww (PEPTIDE ID NO: 13)]	2560 nM
[dF][dR][dV][dR][dI][dR][dH][dW] [frvrirhw (PEPTIDE ID NO: 118)]	1310 nM
[dF][dR][dI][dR][dL][dR][dW] [frirlrw (PEPTIDE ID NO: 56)]	1460 nM
[dL][dK][dI][dK][dI][dH][dY] [lkikihy (PEPTIDE ID NO: 233)]	930 nM
[dL][dK][dI][dR][dI][dH][dR][dH] [lkirihrh (PEPTIDE ID NO: 274)]	1510 nM
[dK][dL][dK][dL][dR][dW][dW] [klklrww (PEPTIDE ID NO: 448)]	920 nM
[dV][dR][dW][dW][dW][dR][dL][dK] [vrwwwrlk (PEPTIDE ID NO: 204)]	740 nM
[dR][dL][dR][dI][dH][dW][dF] [rlrihwf (PEPTIDE ID NO: 446)]	2690 nM
[dF][dK][dL][dK][dL][dR][dW] [fklklrw (PEPTIDE ID NO: 413)]	1050 nM
[dL][dR][dI][dR][dL][dH][dY][dH] [lrirlhyh (PEPTIDE ID NO: 420)]	970 nM
[dR][dW][dR][dL][dK][dV][dR][dW] [rwrlkvrw (PEPTIDE ID NO: 217)]	830 nM
[dW][dW][dR][dV][dK][dL][dR][dW] [wwrvklrw (PEPTIDE ID NO: 195)]	660 nM
[dL][dR][dI][dK][dI][dR][dF][dH] [lrikirfh (PEPTIDE ID NO: 421)]	970 nM
